system: HCT-116; test: In vitro cytotoxicity against 116 human colon tumor cell line (HCT116); format: functional, cell-based
experimental-endpoint: pIC50
Answers are plain numbers, as −log10 of the molar value.

For orientation, consider the following solved cases.
May I ask what pIC50 has been recorded for `CC(C)(C)[Si](C)(C)O[C@@]12C#C/C=C\C#C[C@@H](O)C(=CCC1)C2=O` ?
7.00

May I ask what pIC50 has been recorded for `CC(C)(C)[Si](C)(C)O[C@@]12C#C/C=C\C#C[C@@H](F)C(=CCC1)C2=O` ?
7.62

Read the next record carefully.
May I ask what pIC50 has been recorded for `CC(C)(C)[Si](C)(C)O[C@@]12C#C/C=C\C#C[C@@H](OC(=O)COc3ccccc3)C(=CCC1)C2=O` ?
6.72
